src = patent US20250243286A1

- Measurement target: ActRIIA and ActRIIB (on TGFB/SMAD SBE Reporter HEK293 cells) (human)
- Sequence (chain, as listed by the source, chain 1 of 2): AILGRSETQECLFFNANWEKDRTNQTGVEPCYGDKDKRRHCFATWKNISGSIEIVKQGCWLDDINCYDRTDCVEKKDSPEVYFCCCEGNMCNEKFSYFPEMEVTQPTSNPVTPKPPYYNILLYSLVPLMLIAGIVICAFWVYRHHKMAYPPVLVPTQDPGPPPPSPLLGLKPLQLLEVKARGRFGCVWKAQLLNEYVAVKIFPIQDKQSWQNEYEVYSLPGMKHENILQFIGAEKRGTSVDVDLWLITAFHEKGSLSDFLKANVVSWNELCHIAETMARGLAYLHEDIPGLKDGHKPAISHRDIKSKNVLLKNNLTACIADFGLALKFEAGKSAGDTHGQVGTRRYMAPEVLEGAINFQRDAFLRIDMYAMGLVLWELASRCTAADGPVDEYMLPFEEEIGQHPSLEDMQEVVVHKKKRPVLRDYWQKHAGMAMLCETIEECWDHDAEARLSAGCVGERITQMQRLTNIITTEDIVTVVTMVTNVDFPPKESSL
- Sequence (chain, as listed by the source, chain 2 of 2): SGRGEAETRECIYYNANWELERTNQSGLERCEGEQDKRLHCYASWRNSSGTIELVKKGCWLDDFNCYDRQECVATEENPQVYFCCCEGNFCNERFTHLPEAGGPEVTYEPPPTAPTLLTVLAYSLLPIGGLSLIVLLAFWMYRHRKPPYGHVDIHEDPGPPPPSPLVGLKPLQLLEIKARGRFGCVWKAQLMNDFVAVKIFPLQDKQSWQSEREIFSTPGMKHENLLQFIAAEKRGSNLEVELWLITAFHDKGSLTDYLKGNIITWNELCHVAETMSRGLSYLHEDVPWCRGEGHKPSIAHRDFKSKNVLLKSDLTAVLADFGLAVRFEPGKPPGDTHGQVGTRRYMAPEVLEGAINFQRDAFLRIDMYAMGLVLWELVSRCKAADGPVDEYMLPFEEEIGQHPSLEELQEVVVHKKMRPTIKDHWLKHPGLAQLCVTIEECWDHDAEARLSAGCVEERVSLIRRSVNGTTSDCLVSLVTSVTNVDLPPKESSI
- Procedure text: cell-based or functional assay
IC50, Activin SMAD RGA values, listed per item
Quick reminder: number only, in nM, skip the unit.

Binder | Unit label | IC50, Activin SMAD RGA
Antibody Duuranad (antibody, V domains shown, full-length IgG) VH: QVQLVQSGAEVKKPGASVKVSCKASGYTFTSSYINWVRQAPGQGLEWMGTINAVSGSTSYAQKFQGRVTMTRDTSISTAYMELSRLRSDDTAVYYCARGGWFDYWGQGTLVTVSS VL: QSALTQPASVSGSPGQSITISCTGTSSDVGSFNYVNWYQQHPGKAPKLMIRGVSKRESGVSNRFSGSKSGNTASLTISGLQAEDEADYYCGTFAGGAYYGVFGGGTKLTVL | nM | 0.3

Shifting focus to the binder that follows.
Query block: Given Wurschdsalat Fab (Fab, V domains shown, Fab) VH: QVQLVQSGAEVKKPGASVKVSCKASGYTFTSSYINWVRQAPGQGLEWMGTINAVSGSTSYAQKFQGRVTMTRDESISTAYMELSRLRSDDTAVYYCARGGWFDYWGQGTLVTVSS VL: QSALTQPASVSGSPGQSITISCTGTSSDVGSYNYVNWYQQHPGKAPKLMIYGVSKRESGVSNRFSGSKSGNTASLTISGLQAEDEADYYCGTFAGGKYYGVFGGGTKLTVL , state its recorded IC50, Activin SMAD RGA.
Result block: 9.9
